The entries below are paired with their reported z-score.
target: Metabotropic glutamate receptor 8 (Rattus norvegicus) (UniProt P70579); assay: mGluR8 Gi/Go-coupled signaling modulation – cell-based, rat, thallium flux, HTS, primary screen (AID 488969); conditions: HEK293 rat mGluR8, GIRK thallium flux, FluoZin2; at 10 µM; stronger effect = higher value; submaximal glutamate (EC20) added with thallium
Sequence (P70579 whole entry, looked up): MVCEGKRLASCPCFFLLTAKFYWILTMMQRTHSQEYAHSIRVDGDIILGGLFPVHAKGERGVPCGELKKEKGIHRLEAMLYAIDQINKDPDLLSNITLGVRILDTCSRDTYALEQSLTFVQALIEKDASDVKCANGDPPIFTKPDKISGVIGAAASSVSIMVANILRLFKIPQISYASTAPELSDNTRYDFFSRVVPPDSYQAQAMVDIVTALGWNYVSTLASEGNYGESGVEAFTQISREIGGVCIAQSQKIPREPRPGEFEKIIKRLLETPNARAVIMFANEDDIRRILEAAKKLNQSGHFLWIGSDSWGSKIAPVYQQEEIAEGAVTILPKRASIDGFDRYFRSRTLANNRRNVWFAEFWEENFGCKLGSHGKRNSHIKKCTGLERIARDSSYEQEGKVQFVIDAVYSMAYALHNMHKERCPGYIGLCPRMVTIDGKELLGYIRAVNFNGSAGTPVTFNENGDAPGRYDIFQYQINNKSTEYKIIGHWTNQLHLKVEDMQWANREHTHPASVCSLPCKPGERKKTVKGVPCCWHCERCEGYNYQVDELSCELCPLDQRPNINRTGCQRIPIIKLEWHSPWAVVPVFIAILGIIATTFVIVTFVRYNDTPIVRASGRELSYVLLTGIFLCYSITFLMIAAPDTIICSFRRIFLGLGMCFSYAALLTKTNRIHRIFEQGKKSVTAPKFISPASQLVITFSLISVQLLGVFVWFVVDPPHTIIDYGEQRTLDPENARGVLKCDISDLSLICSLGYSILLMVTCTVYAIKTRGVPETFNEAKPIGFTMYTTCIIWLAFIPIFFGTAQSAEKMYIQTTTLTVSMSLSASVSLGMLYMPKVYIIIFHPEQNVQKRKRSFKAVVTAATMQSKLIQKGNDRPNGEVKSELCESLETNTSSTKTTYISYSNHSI
In all, about 110,000 compounds were measured (“z-score”: median about -0.1, highest 2% from about 2 on). For the sample, the highest values were picked, then their nearest neighbours and some compounds at random.
measure: z-score

molecule=CCCC(=O)Nc1cc(C)c(NC(=O)C23CC4CC(CC(C4)C2)C3)cn1 assay_system="Metabotropic glutamate receptor 8 (Rattus norvegicus) (UniProt P70579)" measure=z-score assay_result=0.0448
molecule=CCC(=O)Nc1ccc(NC(=O)C23CC4CC(CC(C4)C2)C3)cn1 assay_system="Metabotropic glutamate receptor 8 (Rattus norvegicus) (UniProt P70579)" measure=z-score assay_result=-0.0944
molecule="Cc1cc(N2CCOCC2)nc2ccc(NC(=O)CCC(=O)N3CCCC(C)C3)cc12 (stereo unspecified)" assay_system="Metabotropic glutamate receptor 8 (Rattus norvegicus) (UniProt P70579)" measure=z-score assay_result=2.7
molecule=Cc1cc(N2CCOCC2)nc2ccc(NC(=O)CCC(=O)N3CCC(C)CC3)cc12 assay_system="Metabotropic glutamate receptor 8 (Rattus norvegicus) (UniProt P70579)" measure=z-score assay_result=0.27
molecule=CCCCC(=O)Nc1ccc(NC(=O)C2CC2)nc1 assay_system="Metabotropic glutamate receptor 8 (Rattus norvegicus) (UniProt P70579)" measure=z-score assay_result=0.252
molecule=CCCC(=O)Nc1ccc(NC(=O)C23CC4CC(CC(C4)C2)C3)cn1 assay_system="Metabotropic glutamate receptor 8 (Rattus norvegicus) (UniProt P70579)" measure=z-score assay_result=5.76
molecule=CCCCC(=O)Nc1ccc(NC(=O)C2CC2)cn1 assay_system="Metabotropic glutamate receptor 8 (Rattus norvegicus) (UniProt P70579)" measure=z-score assay_result=0.324
molecule=O=C(Cc1csc(N2CCOCC2)n1)N/N=C/c1ccc(Cl)cc1Cl assay_system="Metabotropic glutamate receptor 8 (Rattus norvegicus) (UniProt P70579)" measure=z-score assay_result=-0.885
molecule=Cc1cc(N2CCOCC2)nc2ccc(NC(=O)CCC(=O)N3CCCCC3)cc12 assay_system="Metabotropic glutamate receptor 8 (Rattus norvegicus) (UniProt P70579)" measure=z-score assay_result=-0.00221
molecule=COc1cccc(C(=O)Nc2ccc(NC(C)=O)cn2)c1 assay_system="Metabotropic glutamate receptor 8 (Rattus norvegicus) (UniProt P70579)" measure=z-score assay_result=0.157
molecule=N#CC1(P(=O)(c2ccccc2)c2ccccc2)CC1 assay_system="Metabotropic glutamate receptor 8 (Rattus norvegicus) (UniProt P70579)" measure=z-score assay_result=-0.0596

====

The entries below are paired with their reported z-score.
target: Metabotropic glutamate receptor 8 (Rattus norvegicus) (UniProt P70579); test: mGluR8 Gi/Go-coupled signaling modulation – cell-based, rat, thallium flux, HTS, primary screen (AID 488969); conditions: HEK293 rat mGluR8, GIRK (G protein-gated inwardly rectifying potassium channel) thallium flux, FluoZin2; at 10 µM; stronger effect = higher value; submaximal glutamate (EC20) added with thallium
The full ranking holds about 110,000 compounds; the median of “z-score” is about -0.1, and the highest 2% start at about 2. What follows is part of a selection rich in the highest values, with near analogues and random picks from the rest.
measure: z-score

molecule="O=C(c1cccs1)N1N=C(c2ccccc2)CC1c1ccccc1 (stereo not given)" assay_result=-0.101
molecule=COc1cc2[nH]c(=O)n(CCCCCC(=O)N3CCN(c4ccccc4)CC3)c(=O)c2cc1OC assay_result=-0.317
molecule=CCOC(=O)c1csc(NC(=O)Nc2cccc(Cl)c2)n1 assay_result=-0.0455
molecule=O=C(/C=C/c1cccc([N+](=O)[O-])c1)NCCSc1ccccc1 assay_result=-0.3
molecule=O=C(NCc1cccs1)Nc1cccc(Cl)c1 assay_result=0.43
molecule="CCN1CCN(C(=O)C(C)N(c2ccc(C)cc2)S(C)(=O)=O)CC1 (stereo not given)" assay_result=1.05
molecule=CCOC(=O)c1cc(NC(=O)c2cc(C)on2)cc(C(=O)OCC)c1 assay_result=-0.369
molecule="CC(C)CCNC(=O)C(C)N(C(=O)Cn1nnc(-c2ccc(F)cc2)n1)C1CCCC1 (stereo not given)" assay_result=2.82
molecule=CC(C)(C)c1ccc2c(c1)C(=O)c1ccccc1C2=O assay_result=-0.283
molecule="CCC(C(=O)NC1CCCC1)N(C(=O)Cn1nnc(-c2ccc(C)cc2)n1)C1CCCC1 (stereo not given)" assay_result=-0.114
molecule=Cc1n[nH]c(C)c1S(=O)(=O)N(CC(=O)Nc1ccc2c(c1)OCCO2)c1ccc(C(C)C)cc1 assay_result=-0.193
molecule="Cc1cc(C)nc(-n2nc(C)cc2NC(=O)CNC(C)c2ccccc2)n1 (stereo not given)" assay_result=0.124
molecule=CCn1c(=O)c(C(=O)NCCCO)c(O)c2ccccc21 assay_result=3.51
molecule="COc1ccc(-c2nnn(CC(=O)N(C3CCCCC3)C(C)C(=O)NC3CCCC3)n2)cc1OC (stereo not given)" assay_result=1.3
molecule=O=C(O)c1cccc(-c2ccc(/C=N/NC(=O)c3cccnc3)o2)c1 assay_result=-0.216
molecule=CC(=O)c1ccc(NC(=O)COC(=O)CCC(=O)c2cccs2)cc1 assay_result=0.114
molecule=CCOC(=O)c1c(C)[nH]c(C)c1C(=O)COC(=O)/C=C/c1ccc(OC(F)F)cc1 assay_result=-0.244
molecule="CCOC(=O)c1cc(-c2ccccc2)sc1NC(=O)C(C)OC(=O)c1cccnc1OCC (stereo not given)" assay_result=0.0703
molecule=Cc1csc(NC(=O)Nc2cccc(Cl)c2)n1 assay_result=0.398
molecule=Fc1ccc(NC(=S)Nc2cccc(Cl)c2)cc1 assay_result=1.26
molecule=Cc1ccc(Cn2c(SCC(C)C)nc3c2c(=O)n(C)c(=O)n3C)cc1 assay_result=-0.493
molecule=CCNCCNC(=O)c1c(O)c2ccccc2n(CC)c1=O assay_result=-0.289
molecule=CC1CCN(C(=O)CSc2nnc(CNC(=O)c3ccco3)o2)CC1 assay_result=2.28
molecule=CCOc1cc2[nH]c(=O)n(CCCCC(=O)N3CCCCCC3)c(=O)c2cc1OCC assay_result=2.21
molecule=COc1cc(/C=C2/SC(N)=NC2=O)ccc1Oc1ccc([N+](=O)[O-])cc1[N+](=O)[O-] assay_result=-0.644
molecule=Cc1ccc(C(=O)O/N=C/c2ccc3c(c2)OCO3)cc1 assay_result=-0.102
molecule=CC(C)COC(=O)c1nnsc1NC(=O)Nc1ccccc1 assay_result=0.142
molecule=C1=C(CCNc2nnnn2-c2ccccc2)CCCC1 assay_result=-0.26
molecule=CCc1ccc(N/C(SC)=C(/C#N)C(N)=O)cc1 assay_result=0.119
molecule="COc1ccc(-c2nc3c(c(=O)n(C)c(=O)n3C)n2CC2CC(c3ccccc3)=NO2)cc1OC (stereo not given)" assay_result=2.08
molecule="O=c1c2ccccc2nc(-c2ccc(Cl)cc2)n1C1CCS(=O)(=O)C1 (stereo not given)" assay_result=-0.341
molecule=CCCCNC(=O)CCn1c(=O)c2ccccc2n(Cc2ccc(F)cc2)c1=O assay_result=-0.407
molecule="CCOC(=O)N1CCN(C(=O)C2CC(c3cc(OC)ccc3OC)=NO2)CC1 (stereo not given)" assay_result=-0.594
molecule=CC(C)=CC(=O)Nc1nnc(-c2ccccc2)s1 assay_result=-0.169
molecule="O=C1CC(c2ccc(S(=O)(=O)NCCOc3ccccc3)cc2)CN1 (stereo not given)" assay_result=0.129
molecule=Cc1ccc(OCCCN(C)C)c(Br)c1 assay_result=1.17
molecule=Cc1ccc2cc(CN(Cc3ccco3)C(=O)c3ccccc3)c(=O)[nH]c2c1C assay_result=-0.385
molecule="COc1cccc(OCC(O)CN2C(C)CCCC2C)c1 (stereo not given)" assay_result=0.438
molecule=Cc1ccc(OCC(=O)N/N=C\c2ccc(-c3cccc(C(=O)O)c3)o2)c(C)c1 assay_result=3.24
molecule=O=S(=O)(Nc1ccc(Cc2ccncc2)cc1)c1cccs1 assay_result=-0.0895
molecule=O=C(NCc1nnc(SCC(=O)N2CCCCCC2)o1)c1ccco1 assay_result=-0.474
molecule=CCOc1cc(C)c(S(=O)(=O)NC2CCCCC2)cc1C assay_result=-0.571
molecule=S=C(NCc1ccncc1)Nc1cccc(Cl)c1 assay_result=-0.135
molecule=CS(=O)(=O)Nc1ccc(C(=O)NCCC2=CCCCC2)cc1 assay_result=1.28
molecule=CNC(=O)CSc1nc2c(c(=O)n(C)c(=O)n2C)n1Cc1ccc(C)cc1 assay_result=2.07
